- Target Or System: Rap guanine nucleotide exchange factor 3 (Homo sapiens)
- Assay Text: Counterscreen qHTS for antagonist of cAMP-regulated guanine nucleotide exchange factor 3 (EPAC1) (AID 1645888);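 note: fluorescence loss as bound BODIPY-GDP is released from Rap1B; % of control where 0% means no effect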
- Settings: Rap1B-BODIPY-GDP nucleotide exchange, fluorescence; series mostly up to 154 µM
Results filed as inconclusive are left out. Calls of active or inactive are those of the source. Calls come from the whole dose curve; as a rule, active = well fitted inhibition curve with a large enough effect; inconclusive = small, poorly fitted or top-dose-only effect; inactive = no such curve, though single readings can be large or run the other way.
Measured Quantity: activity change, negative = inhibition

Look over these answered cases.
- Compound: "CCCCNC(=O)NC12CC3CC(CC(C3)C1)C2"
  Data Value: "inactive"
- Compound: "O=C1c2ccccc2S(=O)(=O)c2cc(N3CCC4(CC3)OCCO4)ccc21"
  Data Value: "inactive"
- Compound: "CC1CN(C(=O)N2CCOCC2)CCN1C(=O)N1CCOCC1 (stereo unspecified)"
  Data Value: "inactive"
- Compound: "COc1ccc(/C=N/NC(=O)c2cccnc2)cc1CN1CCCc2ccccc21"
  Data Value: "inactive"

# per-item lookup of activity change, negative = inhibition; items listed below
1. O=C(Nc1ccncc1)c1ccc2ncsc2c1
2. O=C(O)c1cc(N/N=C/c2ccncc2)ccc1Cl
3. O=C(O)CCn1cc(/C=C2\NC(=S)N(c3ccccc3)C2=O)c(-c2ccc(Br)cc2)n1
4. CCc1nc2c(OCc3ccc(C#N)cc3)cccn2c1N(C)C(=O)c1ccc(C)cc1
5. CC(=O)C1=C(c2ccc(C)cc2)N(C(C)=O)n2c(nnc2C2CCCCC2)S1

inactive
-14% [at 30.8 µM] (inactive)
inactive
inactive
inactive

# per-item lookup of activity change, negative = inhibition; items listed below
1. COc1cc(SC)ccc1C(=O)N(Cc1ccccc1)c1ccccc1
2. CCOc1ccc(C(C(=O)NC2CCCC2)N(C(=O)c2snc(C(N)=O)c2N)C2CCCC2)cc1 (stereo unspecified)

inactive
inactive

* * *

- Target Or System: Phospholipid hydroperoxide glutathione peroxidase GPX4 (Homo sapiens)
- Assay Text: Primary qHTS Assay for Inhibitors of Recombinant Selenoprotein Glutathione Peroxidase 4 (GPX4) (AID 1845192); note: nearly all actives have a fitted effect of over 65% in size
- Settings: recombinant GPX4, GR-coupled NADPH fluorescence, 15 min; series mostly up to 50 µM
Inconclusive results are not listed. Activity calls are given as the source filed them. Calls follow the shape of the dose curve; as a rule, active = well fitted inhibition curve with a large enough effect; inconclusive = small, poorly fitted or top-dose-only effect; inactive = flat fitted curve, though single readings scatter.
Can you answer with just one of these options? yes (1) (active), no (0) (inactive)

// outcome(item) with item = CC1=C2C[C@H]3[C@@H](CC[C@@H]4C[C@H](NS(C)(=O)=O)CC[C@@]43C)[C@@H]2CC[C@@]2(C1)O[C@@H]1C[C@H](C)CN[C@H]1[C@H]2C
no (0)

// outcome(item) with item = NC(=O)c1ccc2nc(-c3ccc(C4(N)CCC4)cc3)c(-c3ccccc3)n2n1
no (0)

// outcome(item) with item = CNC(=O)CCc1cc(-c2ccc(-c3ccc(C(F)(F)F)cc3)cc2)n(-c2ccc(N3CCNCC3)cc2)n1
no (0)

// outcome(item) with item = COc1ccc(-c2ccc3c(N4CCOC[C@@H]4C)nc(N4CCOC[C@@H]4C)nc3n2)cc1CO
yes (1)

* * *

- Assay Text: qHTS profiling for inhibitors of Plasmodium falciparum proliferation (AID 504749);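 note: 0% = DMSO vehicle and full inhibition = artemisinin control; nearly all actives have a fitted effect of over 60% in size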
- Settings: P. falciparum in erythrocytes, SYBR Green DNA, 72 h; at 12.8 µM (top of the series); parasite line A
Inconclusive results are not listed.
Task for the reader: assign each of the following compounds its reported activity, negative = inhibition.
Numbers only, in %.

- Sample Smiles: "CC1(C)O[C@@H]2C[C@H]3[C@H]4C[C@H](F)C5=CC(=O)CC[C@]5(C)[C@@H]4[C@H](O)C[C@]3(C)[C@]2(C(=O)CO)O1"
  Data Value: -10.9

# per-item lookup of activity, negative = inhibition; items listed below
1. CCN(CCCCOC(=O)c1ccc(OC)c(OC)c1)[C@@H](C)Cc1ccc(OC)cc1
2. CC(C)(C)NC[C@H](O)COc1cccc2c1CCC(=O)N2
3. COc1ccc(OC)c([C@H](O)CNC(=O)CN)c1

1: -10.8; 2: 7.75; 3: -3.94
